Origin of measurements: paper PMC5668913

Reported pKd by item:
molecular target: MbRIP1 (type 1 ribosome inactivating protein from Momordica balsamina) (Momordica balsamina, UniProt D9J2T9)
Sequence (D9J2T9 1-246): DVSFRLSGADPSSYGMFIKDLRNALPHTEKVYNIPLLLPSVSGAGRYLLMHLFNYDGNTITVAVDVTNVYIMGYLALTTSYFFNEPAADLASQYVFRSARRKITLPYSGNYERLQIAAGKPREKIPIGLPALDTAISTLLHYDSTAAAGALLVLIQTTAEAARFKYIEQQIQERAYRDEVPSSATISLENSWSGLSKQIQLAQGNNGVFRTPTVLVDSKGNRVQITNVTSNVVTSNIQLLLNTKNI
pKd: −log10 of the molar value.

Nc1cc[nH]c(=O)n1 | ~3.64

// switching to the query molecule
Can you look up the measured pKd of `Nc1ccn([C@@H]2O[C@H](CO)[C@@H](O)[C@H]2O)c(=O)n1` for me? ~5.30
